- Test system: A2780
- Assay Protocol: Proliferation assay A2780
- Type: cell-based
- Experimental Context: Homo sapiens, Ovarian, 72 hours
Observable: IC50 (µM)

N#C/C(=C\c1cc(O)c(O)c(I)c1)C(=S)NCc1cc(O)c(O)c(O)c1; 0.6

1. N#C/C(=C\c1cc(O)c(O)c(Br)c1)C(=S)NCc1cc(O)c(O)c(Br)c1
2. N#C/C(=C\c1cc(O)c(O)c(Br)c1)C(=S)NCc1cc(O)c(O)c(O)c1
3. Oc1cc(CNC(=S)/C=C/c2cc(O)c(O)c(Br)c2)cc(O)c1O
Put the items in sequence by IC50, from largest down. Note for the reader: the ranking is given by listing the labels in the order requested.
1, 2, 3
(1: 6.8 µM, 2: 0.6 µM, 3: 0.4 µM)
